Test system: SNU-C2B
PROTOCOL NOTES: MTS proliferation assay
Type: cell-based, human
EXPERIMENTAL SETUP: Homo sapiens, SNU-C2B, 72 h
pIC50: −log10 of the molar value.
MEASUREMENT KIND: pIC50

# MOLECULE, TARGET OR SYSTEM, MEASUREMENT KIND, RECORDED MEASUREMENT
rows = [
    ("C[C@@]1(C(=O)Nc2ccc(F)nc2)CCCN1c1nc(Nc2cc(C3CC3)n[nH]2)c2cccn2n1", "SNU-C2B", "pIC50", 5.83),
]

----------
Tested on: KM12C
PROTOCOL NOTES: MTS proliferation assay
Assay type: cell-based, human
EXPERIMENTAL SETUP: Homo sapiens, 72 h
pIC50: −log10 of the molar value.
MEASUREMENT KIND: pIC50

# MOLECULE, MEASUREMENT KIND, RECORDED MEASUREMENT
measured = [
    ("C[C@@]1(C(=O)Nc2ccc(F)nc2)CCCN1c1nc(Nc2cc(C3CC3)n[nH]2)c2cccn2n1", "pIC50", 7.48),
]

Sourced from patent US20140309229A1
